Test method notes: Antiproliferative activity against human pancreatic stellate cells at 20 uM after 24 to 48 hrs by AlamarBlue assay
Assay type: functional
// class assignment uses inhibition at 20 µM with these ranges: group 1 (below 60%), group 2 (60% to below 80%), group 3 (80% or more)

Answered cases to consult:
1) O=c1cc(-c2ccc(O)cc2)oc2cc(O)cc(O)c12; group 2
2) COC(=O)[C@@H]1CCCN1CCOc1ccc(-c2cc(=O)c3c(OC)cc(OC)cc3o2)cc1; group 2
3) COc1cc(O)c2c(=O)cc(-c3ccc(OCCN4CCCC4)cc3)oc2c1; group 3

Lab log: COc1cc(OC)c2c(=O)cc(-c3ccc(OCCF)cc3)oc2c1 — assign inhibition at 20 µM category
group 1

For the record COc1cc(OC)c2c(=O)cc(-c3ccc(OCCN4CCCC4)cc3)oc2c1 , report the class its inhibition at 20 µM corresponds to.
group 3

Class? Entry: COc1cc(OC)c2c(=O)cc(-c3ccc(OCCBr)cc3)oc2c1
group 1

Categorize the following entry: COc1cc(OC)c2c(=O)cc(-c3ccc(-c4ccc(F)nc4)cc3)oc2c1
group 1

Input COc1cc(OC)c2c(=O)cc(-c3ccc(OCCN4CCN(C)CC4)cc3)oc2c1 ; output its category
group 2

Place this compound in its band: COc1cc(OC)c2c(=O)cc(-c3ccc(Br)cc3)oc2c1
group 1

Please indicate the class for CCN(CC)CCOc1ccc(-c2cc(=O)c3c(OC)cc(OC)cc3o2)cc1 based on its inhibition at 20 µM.
group 2

Sort into band: COc1cc(OC)c2c(=O)cc(-c3ccc(NCCN(C)C)cc3)oc2c1
group 3

---

Test method notes: Antiproliferative activity against human pancreatic stellate cells at 20 uM after 24 to 48 hrs by AlamarBlue assay
Type: functional
Metric: inhibition at 20 µM (%)
Quick note: give the figure in %, leave out the unit.

Study these solved cases before continuing.
1. COc1cc(OC)c2c(=O)cc(-c3ccc(OCCN4CCCCC4)cc3)oc2c1; 97
2. COc1cc(OC)c2c(=O)cc(-c3ccc(OCC4CO4)cc3)oc2c1 (stereo not given); 93
3. COc1cc(OC)c2c(=O)cc(-c3ccc(OCCCN(C)C)cc3)oc2c1; 86
4. COc1cc(OC)c2c(=O)cc(-c3ccc(OCCN(C)C)cc3)oc2c1; 65

Kindly consider the entry below.
# lookup: inhibition at 20 µM of COc1cc(OC)c2c(=O)cc(-c3ccc(OCCN4CCCC4=O)cc3)oc2c1
33

---

Test method notes: Antiproliferative activity against human pancreatic stellate cells at 20 uM after 24 to 48 hrs by AlamarBlue assay
Type: functional
The entries below come with measured inhibition at 20 µM values attached.
Numeric answer only, unit % assumed.

1. COc1cc(OC)c2c(=O)cc(-c3ccc(NCCN4CCCC4)cc3)oc2c1; 80
2. COc1cc(OC)c2c(=O)cc(-c3ccc(OCC(O)CN(C)C)cc3)oc2c1 (configuration not stated); 71
3. COc1cc(OC)c2c(=O)cc(-c3ccc(OCC(O)CN4CCCCC4)cc3)oc2c1 (configuration not stated); 95
4. COc1cc(OC)c2c(=O)cc(-c3ccc(OCCN)cc3)oc2c1; 70
5. COc1cc(OC)c2c(=O)cc(-c3ccc(OCC(O)CN4CCCC4)cc3)oc2c1 (configuration not stated); 57

Would you kindly share the measured inhibition at 20 µM for COc1cc(OC)c2c(=O)cc(-c3ccc(OCC(O)CO)cc3)oc2c1 (configuration not stated) ?
16

Given O=c1cc(-c2ccc(OCCN3CCCC3)cc2)oc2cc(O)cc(O)c12 , state its recorded inhibition at 20 µM.
90
